Target: CAAX prenyl protease 2 (Homo sapiens)
Test: Inhibition of human Rce1-mediated CaaX protease activity using […] and […] as substrate assessed as residual activity at 10 uM measured every 30 to 60 seconds for 60 mins
# cutoff 60% applies to Activity; >= gives 1, < gives 0

> print(dat)
                                    compound                            test.system  classification
 1  COC(=O)c1ccc(NC(c2ccccc2)c2ccc3cccnc3c2OC)cc1 (stereo unspecified)  CAAX prenyl protease 2 (Homo sapiens)               1
 2  CC(C)(C)c1ccc(NC(c2ccccc2)c2ccc3ccccc3c2O)cc1 (stereo unspecified)  CAAX prenyl protease 2 (Homo sapiens)               0
 3  N#Cc1ccc(C(Nc2ccc(C(=O)O)cc2)c2ccc3cccnc3c2O)cc1 (stereo unspecified)  CAAX prenyl protease 2 (Homo sapiens)               1
 4  Cc1ccc(NC(c2ccccc2)c2ccc3cccnc3c2O)cc1 (stereo unspecified)  CAAX prenyl protease 2 (Homo sapiens)               0
 5  CCOC(=O)c1ccc(NC(c2ccccc2)c2ccc(Br)cc2)cc1 (stereo unspecified)  CAAX prenyl protease 2 (Homo sapiens)               1
 6  O=C(O)c1cccc(NC(=O)c2ccc(NC(c3ccccc3)c3ccccc3)cc2)c1  CAAX prenyl protease 2 (Homo sapiens)               1
 7  O=C(O)c1ccc(NC(c2ccc3ccccc3c2O)c2c(F)cc(Br)cc2F)cc1 (stereo unspecified)  CAAX prenyl protease 2 (Homo sapiens)               0
 8  O=C(O)c1ccc2ccc(C(Nc3ccccc3)c3ccccc3)c(O)c2n1 (stereo unspecified)  CAAX prenyl protease 2 (Homo sapiens)               1
 9  O=C(O)c1ccc(NC(c2ccccn2)c2ccc3cccnc3c2O)cc1 (stereo unspecified)  CAAX prenyl protease 2 (Homo sapiens)               1
10  O=C(O)c1ccc(NC(c2ccccc2)c2ccc3cccnc3c2O)cc1 (stereo unspecified)  CAAX prenyl protease 2 (Homo sapiens)               0

Data origin: ChEMBL document CHEMBL3739299
